Assay: growth inhibition, MDA-MB-436, cell-based, BGB or cisplatin combos, synergistic combos for chromothripsis tumors (AID 1671458);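 note: cells exposed for 96 hours; 0% = vehicle DMSO and 100% = killing by high DMSO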
Conditions: MDA-MB-436 breast carcinoma growth inhibition, drug combinations; measured here: BGB combination; at 5 µM; stronger effect = higher value
assay.readout: inhibition (%)

- CCn1cc(C(=O)O)c(=O)c2cc3c(cc21)OCO3: -18.6
- Cc1nc2ccc(CN(C)c3ccc(C(=O)N[C@@H](CCC(=O)O)C(=O)O)s3)cc2c(=O)[nH]1: 17.5
- NC(=O)NO: -2.86
- Cc1oncc1C(=O)Nc1ccc(C(F)(F)F)cc1: 48.9
- O=c1c(O)c(-c2ccc(O)c(O)c2)oc2cc(O)cc(O)c12: 15.2
- O=c1oc2c(O)c(O)cc3c(=O)oc4c(O)c(O)cc1c4c23: -25.4
- C[C@H]1COc2c(C3(N)CC3)c(F)cc3c(=O)c(C(=O)O)cn1c23: -26.3
- Nc1[nH]c(=O)ncc1F: -20.1
- CC(N)C12CC3CC(CC(C3)C1)C2 (stereo not drawn): -29.1
- CCN1CCN(c2cc3c(cc2F)c(=O)c(C(=O)O)cn3C2CC2)CC1: -31.3
- O=C(O)CCCCCCCC(=O)O: -29
- Cc1ccnc2c1NC(=O)c1cccnc1N2C1CC1: -27
- Nc1nc(=S)c2[nH]cnc2[nH]1: 52.8
